Reference source: the RNAGym collection of RNA variant scans (doi:10.7554/elife.90254)

Form field: self-cleavage (one value per entry).
B1: LINE1-full (parent)
chain: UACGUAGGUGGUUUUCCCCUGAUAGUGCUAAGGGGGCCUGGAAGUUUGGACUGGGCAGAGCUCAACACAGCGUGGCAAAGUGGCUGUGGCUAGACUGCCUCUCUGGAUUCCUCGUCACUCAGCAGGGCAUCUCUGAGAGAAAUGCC

# Variants of: B1
# TEST DETAILS: self-cleavage, relative activity (ratio to wild type); higher = more cleavage; in vitro, sequencing; the parent is a self-cleaving ribozyme
In your answer, state the number alone without any accompanying words.

Example entries begin here.
>  <MUTATION ID>
U47A C128U

>  <self-cleavage>
1.39

$$$$
>  <MUTATION ID>
A42G A64U

>  <self-cleavage>
0.52

$$$$
>  <MUTATION ID>
G105A

>  <self-cleavage>
1.43

$$$$

Let me know recorded self-cleavage for U29A G44A , thanks.
0.61

Please look at this variant and report its self-cleavage: U47G U112C
0.8

Answer with the recorded self-cleavage for the variant listed here: U9A C61U
0.02

Hello, please tell me recorded self-cleavage for this one: U73C U85G
0.21

Specify self-cleavage for U39C C113A and stop.
0.33

Please look at this variant and report its self-cleavage: G74A U81C
0.78

Name the recorded self-cleavage of the variant listed here: U26C A31C
1.23

Quickly give me recorded self-cleavage for C61U U85A
0.03
